# measured-on: T1, biotinylated CD3 epsilon:delta heterodimer protein (Amsbio AMS.CDD-H52WO) (Homo sapiens (Human), UniProt P07766 23-126; P04234 22-105)
# T1 construct: also called CD3 heterodimer
# test-protocol: BLI (Octet), CD3 on SA sensor, Fab analyte;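 also: fabs dipped at several concentrations (0–300 nM) onto CD3-loaded streptavidin biosensors, 100 s association then 300 s dissociation in buffer, pH 7.4, sensors blocked with biocytin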

binder: huSP34.3.8 Fab-HF (Fab, V domains shown, also called HC3+LC8) VH: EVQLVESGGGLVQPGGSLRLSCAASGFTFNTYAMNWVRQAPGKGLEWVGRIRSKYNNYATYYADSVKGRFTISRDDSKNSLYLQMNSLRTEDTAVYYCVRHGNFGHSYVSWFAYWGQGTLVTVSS VL: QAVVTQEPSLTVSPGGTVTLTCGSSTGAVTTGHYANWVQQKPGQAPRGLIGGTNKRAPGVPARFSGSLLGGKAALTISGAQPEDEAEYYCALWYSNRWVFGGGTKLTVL
koff: 0.00113 s⁻¹
//
binder: huSP34.11.10 Fab-HF (Fab, V domains shown, also called HC11+LC10) VH: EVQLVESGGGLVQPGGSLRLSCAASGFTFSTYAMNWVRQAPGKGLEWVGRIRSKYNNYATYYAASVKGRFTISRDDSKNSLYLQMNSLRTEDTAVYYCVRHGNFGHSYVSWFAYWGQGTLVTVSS VL: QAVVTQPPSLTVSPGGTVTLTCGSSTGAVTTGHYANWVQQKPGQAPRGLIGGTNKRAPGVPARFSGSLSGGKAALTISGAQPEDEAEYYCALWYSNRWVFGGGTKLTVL
koff: 0.00192 s⁻¹
//
binder: huSP34.13.9 Fab-HF (Fab, V domains shown, also called HC13+LC9) VH: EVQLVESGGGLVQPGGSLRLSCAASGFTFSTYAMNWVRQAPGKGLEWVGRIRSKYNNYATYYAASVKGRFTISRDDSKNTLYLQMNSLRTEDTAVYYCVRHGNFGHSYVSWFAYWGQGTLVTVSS VL: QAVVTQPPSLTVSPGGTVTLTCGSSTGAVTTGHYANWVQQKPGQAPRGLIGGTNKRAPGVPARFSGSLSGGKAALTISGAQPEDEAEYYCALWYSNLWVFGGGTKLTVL
koff: 0.00361 s⁻¹
//
binder: huSP34.12.10 Fab-HF (Fab, V domains shown, also called HC12+LC10) VH: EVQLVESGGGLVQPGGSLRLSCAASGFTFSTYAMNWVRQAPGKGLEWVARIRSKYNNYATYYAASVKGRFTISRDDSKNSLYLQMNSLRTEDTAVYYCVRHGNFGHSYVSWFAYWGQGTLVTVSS VL: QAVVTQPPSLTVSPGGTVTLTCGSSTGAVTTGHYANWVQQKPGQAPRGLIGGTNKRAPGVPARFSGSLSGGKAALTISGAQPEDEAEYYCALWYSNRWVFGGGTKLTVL
koff: 0.00205 s⁻¹
//
binder: huSP34.3.9 Fab-HF (Fab, V domains shown, also called HC3+LC9) VH: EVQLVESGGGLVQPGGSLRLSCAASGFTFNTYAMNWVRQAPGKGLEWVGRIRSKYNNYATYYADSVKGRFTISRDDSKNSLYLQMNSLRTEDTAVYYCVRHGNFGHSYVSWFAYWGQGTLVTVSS VL: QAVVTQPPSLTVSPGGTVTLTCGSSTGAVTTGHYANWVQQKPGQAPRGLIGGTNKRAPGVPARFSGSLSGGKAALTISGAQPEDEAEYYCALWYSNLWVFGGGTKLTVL
koff: 0.00221 s⁻¹
